# methodSummary: CellTiter-Glo luminescent readout of SW480 viability loss, NPC library primary (AID 1117343)
# conditions: CellTiter-Glo luminescence; at 20 µM (top of the series)
Would you kindly list viability decrease (inhibition) for each of these molecules?
Numbers only, in %.

Use these answered entries as a reference point.
{"molecule": "CC(C)(C)C(=O)OCOC(=O)C1N2C(=O)CC2S(=O)(=O)C1(C)C (stereo not drawn)", "viability decrease (inhibition), %": -22.3}
{"molecule": "CCCCCCCCCCCCCCCCCC(=O)O", "viability decrease (inhibition), %": 18.8}

Please turn your attention to the following entry.
In: Sample CC[N+](C)(C)c1cccc(O)c1 — what was its viability decrease (inhibition)?
Out: -11.1
